- Tested on: M14 melanoma
- Assay Text: NCI tumour cell line growth inhibition, 48 h
What TGI was measured for each of the following?

Here are 5 compounds together with their reported answers.
The reported TGI of the compound `CC1(C)COC(c2cccc(C3=NC(C)(C)CO3)c2)=N1` was > 100 µM

So for `CSC(=S)N/N=C(\C)c1ccccn1` , the logged TGI turned out to be 2.33 µM

# compound `COC(=O)c1oc2c(C(=O)/C=C/c3ccc(OC)cc3)c(OCCCN3CCCCC3)ccc2c1C` ; its TGI = 3.59 µM

Memo: C[Si](C)(C)/C(Br)=C\CCN1C(=O)CCC1O (stereo unspecified) , reported TGI: > 100 µM

According to the records, this compound `COc1cccc(-n2nnc3c(N)nc(N)nc32)c1` displays TGI of > 100 µM

Batch request: TGI for each of the following compounds.
1. O=c1c2ccccc2nc(-c2ccc(Cl)cc2)n1O
2. CCN(CC)P1(=S)Oc2ccc3ccccc3c2-c2c(ccc3ccccc23)O1
3. N=C(/C=C/c1ccc(-c2cn3cc(/C=C/C(=N)N4CCOCC4)ccc3n2)cc1)N1CCOCC1
4. CC(C)(C)c1cc(C2COC(=O)COCCOCC(=O)OCCOCCO2)cc(C(C)(C)C)c1O (stereo unspecified)

Result ::
1. > 100 µM
2. > 100 µM
3. > 100 µM
4. > 100 µM

Items follow; give TGI for each.
1. Cc1nn(-c2ccccc2)c(C)c1/C=N/NC(=O)c1sc(=S)n(-c2ccc(Cl)cc2)c1N
2. S=C1c2cc(Cl)ccc2NC(=NC2CCCC2)C2CSCN12 (stereo unspecified)

Result ::
["> 100 µM", "> 100 µM"]
